Provenance of the data: ChEMBL document CHEMBL1130625

- Test system: Proteus vulgaris
- ASSAY TEXT: Compound was tested for antibacterial activity against gram negative Proteus vulgaris No.33
- Format: functional
- EXPERIMENTAL CONDITIONS: Proteus vulgaris; read-out: MIC
MEASURED ATTRIBUTE: MIC (µg/mL)

Example entries and their recorded answers appear below.
COc1c(N2C[C@H](CO)[C@H](C(F)(F)F)C2)c(F)cc2c(=O)c(C(=O)O)cn(C3CC3)c12
0.39
COc1c(N2C[C@H](CN)[C@@H](C(F)(F)F)C2)c(F)cc2c(=O)c(C(=O)O)cn(C3CC3)c12.Cl
0.39
COc1c(N2CC[C@@](N)(C(F)(F)F)C2)c(F)cc2c(=O)c(C(=O)O)cn(C3CC3)c12.Cl
0.39
NC1CCN(c2nc3c(cc2F)c(=O)c(C(=O)O)cn3-c2ccc(F)cc2F)C1 (stereo not drawn)
0.05
CC1COc2c(N3CCN(C)CC3)c(F)cc3c(=O)c(C(=O)O)cn1c23 (stereo not drawn)
0.05

a. COc1c(N2C[C@@H](C(F)(F)F)[C@@H](N)C2)c(F)cc2c(=O)c(C(=O)O)cn(C3CC3)c12.Cl
b. COc1c(N2C[C@H](CN)[C@H](C(F)(F)F)C2)c(F)cc2c(=O)c(C(=O)O)cn(C3CC3)c12.Cl
c. COc1c(N2C[C@@H](CN)[C@H](C)C2)c(F)cc2c(=O)c(C(=O)O)cn(C3CC3)c12.Cl
*Q* Rank ascending by MIC. Field: ranking. Enter the labels in the order requested.
*A* b, c, a

====

- System: Klebsiella pneumoniae
- ASSAY TEXT: Compound was tested for antibacterial activity against gram negative Klebsiella pneumoniae KC-1
- Assay type: functional
- EXPERIMENTAL CONDITIONS: Klebsiella pneumoniae; read-out: MIC
MEASURED ATTRIBUTE: MIC (µg/mL)

COc1c(N2C[C@@H](C(F)(F)F)[C@@H](N)C2)c(F)cc2c(=O)c(C(=O)O)cn(C3CC3)c12.Cl
0.2
CC1COc2c(N3CCN(C)CC3)c(F)cc3c(=O)c(C(=O)O)cn1c23 (stereo not drawn)
0.05
COc1c(N2C[C@@H](N)[C@H](C(F)(F)F)C2)c(F)cc2c(=O)c(C(=O)O)cn(C3CC3)c12.O=C(O)C(F)(F)F
0.39
COc1c(N2CC[C@@](CO)(C(F)(F)F)C2)c(F)cc2c(=O)c(C(=O)O)cn(C3CC3)c12
1.56

1. COc1c(N2C[C@H](CN)[C@H](C(F)(F)F)C2)c(F)cc2c(=O)c(C(=O)O)cn(C3CC3)c12.Cl
2. COc1c(N2CC[C@@](CN)(C(F)(F)F)C2)c(F)cc2c(=O)c(C(=O)O)cn(C3CC3)c12.Cl
*Q* Please tell me which of the two, 1 or 2 , has the higher reported MIC value. Which one? Tell me its label.
*A* 2

A. COc1c(N2C[C@@H](CN)[C@H](C)C2)c(F)cc2c(=O)c(C(=O)O)cn(C3CC3)c12.Cl
B. COc1c(N2C[C@@H](CO)[C@H](C(F)(F)F)C2)c(F)cc2c(=O)c(C(=O)O)cn(C3CC3)c12
C. COc1c(N2CC[C@@](N)(C(F)(F)F)C2)c(F)cc2c(=O)c(C(=O)O)cn(C3CC3)c12.Cl
D. COc1c(N2C[C@H](CO)[C@H](C(F)(F)F)C2)c(F)cc2c(=O)c(C(=O)O)cn(C3CC3)c12
*Q* // ranking: key=MIC, reverse=True Please respond by ranking the labels in the order requested.
*A* B, D, C, A
(B: 1.56 µg/mL, D: 0.39 µg/mL, C: 0.2 µg/mL, A: 0.1 µg/mL)

1. COc1c(N2C[C@H](CN)[C@@H](C(F)(F)F)C2)c(F)cc2c(=O)c(C(=O)O)cn(C3CC3)c12.Cl
2. COc1c(N2C[C@@H](CN)[C@H](C(F)(F)F)C2)c(F)cc2c(=O)c(C(=O)O)cn(C3CC3)c12.Cl (racemic)
*Q* Field: entry with larger MIC (options 1 / 2 ). Answer with the label corresponding to your selection.
*A* 1
